Values were extracted from patent US6911432B2.

Tested on: RPMI1788
measurement.notes: antiproliferation assay, MTT method
Assay type: cell-based, human
experimental.context: read-out: IC50 (concentration required for 50% proliferation inhibitory rate)
readout.name: pIC50
Note on units: pIC50 is unitless, being -log10 of a concentration expressed in mol/L.

Before answering, review these 2 worked examples.
compound	pIC50
OC[C@H]1O[C@@H](O[C@H]2[C@H]3OC[C@@H]2OC(O)[C@H]3O)[C@H](O)[C@@H](O)[C@H]1O (mixture of isomers) [Agarobiose, agarobiose]	4.36
OC[C@H]1O[C@@H](O[C@H]2[C@H]3OC[C@@H]2O[C@@H](O[C@H]2[C@@H](O)[C@@H](CO)O[C@@H](O[C@H]4[C@H]5OC[C@@H]4OC(O)[C@H]5O)[C@@H]2O)[C@H]3O)[C@H](O)[C@@H](O)[C@H]1O (stereo partly drawn) [Agarotetraose, agarotetraose]	4.55

Here is another compound to look at.
# query: pIC50 | item OC[C@H]1O[C@@H](O[C@H]2[C@H]3OC[C@@H]2O[C@@H](O[C@H]2[C@@H](O)[C@@H](CO)O[C@@H](O[C@H]4[C@H]5OC[C@@H]4O[C@@H](O[C@H]4[C@@H](O)[C@@H](CO)O[C@@H](O[C@H]6[C@H]7OC[C@@H]6OC(O)[C@H]7O)[C@@H]4O)[C@H]5O)[C@@H]2O)[C@H]3O)[C@H](O)[C@@H](O)[C@H]1O (mixture of isomers) [Agarohexaose, agarohexaose] | system: RPMI1788
4.66
